- System: HCT-116 colon
- EXPERIMENT NOTES: NCI-60 one-dose screen, 48 h
- TEST CONDITIONS: 10 µM unless noted
The panel holds about 83,000 compounds, 20% with a hit somewhere; the sample as a whole holds those more often. Calls of active or inactive are those of the source. The calls were made as follows: active = growth percent below 10; inactive = the rest.
Classes used: class 1 (active), class 0 (inactive)

{"COMPOUND": "NS(=O)(=O)c1cnccc1-n1ccc(=O)c(S(N)(=O)=O)c1", "GROUP LABEL": "class 0"}
{"COMPOUND": "COc1ccc(/C(C)=C(\\c2ccc(Cl)cc2)c2ccc(OCCN3CCCCCC3)cc2)cc1F", "GROUP LABEL": "class 0"}
{"COMPOUND": "CN(C)c1ccc(/C=N/NC(=O)COc2cc(=O)n(C)c3ccccc23)cc1", "GROUP LABEL": "class 0"}
{"COMPOUND": "CC1=CC(=O)C(C(C)C)=CC1=Nc1cc(Br)c(O)c(Br)c1", "GROUP LABEL": "class 1"}
{"COMPOUND": "CCOC(=O)c1nnn(-c2ccccc2)c1C1=CN(C)CCC1", "GROUP LABEL": "class 0"}
{"COMPOUND": "CN(C)CCC(O)(Cc1ccccc1)c1ccccc1 (stereo unspecified)", "GROUP LABEL": "class 0"}
{"COMPOUND": "CS(=O)(=O)c1ccc(-c2nc3cc(Cl)ccc3n2CC(=O)NO)cc1", "GROUP LABEL": "class 0"}
{"COMPOUND": "CCOC(=O)c1c2c(c(C)n1C)-c1nn(Cc3ccc(OC)cc3)cc1CC2", "GROUP LABEL": "class 0"}
{"COMPOUND": "COc1cc(NC(=O)c2cc(O)c(CC=C(C)C)c(O)c2)cc2c1O[C@]1(C)CC[C@@H](O)C(C)(C)[C@H]1C2", "GROUP LABEL": "class 0"}
{"COMPOUND": "Cc1nn(-c2ccccc2)c2c1C(c1ccc([N+](=O)[O-])cc1)C(C#N)=C(N)O2 (stereo unspecified)", "GROUP LABEL": "class 0"}
{"COMPOUND": "O=C(NCCOCCOCCOCCNC(=O)c1cc2c(o1)C(=O)c1ccccc1C2=O)NC12CC3CC(CC(C3)C1)C2", "GROUP LABEL": "class 1"}
{"COMPOUND": "C=CCO[C@H]1CO[C@H]2[C@@H]1OC[C@@H]2Oc1ccc(Nc2ccnc(Nc3ccc(O[C@H]4CO[C@H]5[C@@H]4OC[C@@H]5OCC=C)c(Cl)c3)n2)cc1Cl", "GROUP LABEL": "class 1"}
{"COMPOUND": "CC(C)n1nc(C#Cc2cccc(O)c2)c2c(N)ncnc21", "GROUP LABEL": "class 1"}
{"COMPOUND": "Cc1cc(-c2ccccc2)cc(SC#N)[n+]1[O-]", "GROUP LABEL": "class 0"}
{"COMPOUND": "CC(=O)Nc1cccc(C2=CC(c3ccc(C)cc3)n3ncnc3N2)c1 (stereo unspecified)", "GROUP LABEL": "class 0"}
{"COMPOUND": "COc1cc(NC(=O)c2cccc(-c3cc(=O)c4c(O)c(OC)c(OC)cc4o3)c2)cc(OC)c1OC", "GROUP LABEL": "class 0"}
{"COMPOUND": "O=S(=O)(NCCNc1cc(-c2c(-c3cccc(O)c3)nc3sccn23)ccn1)c1ccc(Br)cc1", "GROUP LABEL": "class 0"}
{"COMPOUND": "CN(CCC(=O)/C(=C\\c1ccccc1)c1ccc(Cl)cc1)Cc1ccccc1", "GROUP LABEL": "class 1"}
{"COMPOUND": "CC(C)N(CCOC(=O)Nc1ccccc1Cl)C(C)C", "GROUP LABEL": "class 0"}
{"COMPOUND": "O=C1Nc2ccccc2/C1=N/N=C/c1ccsc1", "GROUP LABEL": "class 0"}
{"COMPOUND": "CSc1ncc(C)c(Nc2ccc(Cl)cc2)n1", "GROUP LABEL": "class 0"}
{"COMPOUND": "CCCCNC(=O)c1cc(NCc2cc(O)ccc2O)ccc1O", "GROUP LABEL": "class 0"}
{"COMPOUND": "O=C(NCCOCCOCCNc1cccc2c1C(=O)N(C1CCCNC1=O)C2=O)c1cc2c(o1)C(=O)c1ccccc1C2=O (stereo unspecified)", "GROUP LABEL": "class 1"}
{"COMPOUND": "C=C1C(=O)O[C@H]2[C@H]1CC/C(Cn1cc(CNCCc3c[nH]c4ccccc34)nn1)=C\\CC[C@@]1(C)O[C@@H]21", "GROUP LABEL": "class 0"}
{"COMPOUND": "CCN(CC)N=Nc1nn(C(=O)Nc2ccc(Cc3ccccc3)cc2)c2ccc(Cl)cc12", "GROUP LABEL": "class 0"}
{"COMPOUND": "C=CCOc1cccc(/C=C2\\SC(=Nc3ccc(O)cc3)NC2=O)c1", "GROUP LABEL": "class 1"}
{"COMPOUND": "Clc1ccc2[nH]c3c(NCCCN4CCOCC4)ncnc3c2c1", "GROUP LABEL": "class 0"}
{"COMPOUND": "COc1ccc(O)c(-c2cc(-c3ccccc3)c(C#N)c(=O)[nH]2)c1", "GROUP LABEL": "class 0"}
{"COMPOUND": "Cc1ccc(NC(=O)C(Cl)Cl)cc1", "GROUP LABEL": "class 0"}
{"COMPOUND": "CCn1c(Sc2nnc(Nc3ccccc3)s2)nc2c1c(=O)n(C)c(=O)n2C", "GROUP LABEL": "class 0"}
{"COMPOUND": "CN(C)CCn1cc(-c2ccc3c(Nc4ccc(CC(=O)Nc5cccc(F)c5)cc4)ncnc3c2)cn1", "GROUP LABEL": "class 1"}
{"COMPOUND": "CCCCCCCCn1cc(C2=C(c3coc4ccc(OC)cc34)C(=O)NC2=O)c2ccccc21", "GROUP LABEL": "class 0"}
{"COMPOUND": "N#C/C(=C\\c1ccc(Br)cc1)n1nnc2cc(Cl)c(Cl)cc21", "GROUP LABEL": "class 0"}
{"COMPOUND": "CC(c1ccc(-n2cccn2)cc1)c1cnc(N2CCc3ccc(C(N)=O)cc3C2)s1 (stereo unspecified)", "GROUP LABEL": "class 0"}
{"COMPOUND": "CCCCCCNCc1cc(C(C)(C)C)cc(CNCCCCCC)c1O", "GROUP LABEL": "class 1"}
{"COMPOUND": "CCCCCCCCc1cc[n+](CC(=O)c2ccc(Br)cc2)cc1", "GROUP LABEL": "class 1"}
{"COMPOUND": "CCCCCCCC/C=C\\CCCCCCCC(=O)Oc1cccc2cccnc12", "GROUP LABEL": "class 0"}
{"COMPOUND": "Nc1nc(N)c(-c2ccc(Cl)cc2)c(/C=C/c2ccc([N+](=O)[O-])cc2)n1", "GROUP LABEL": "class 0"}
{"COMPOUND": "N#Cc1c(Oc2ccc([N+](=O)[O-])cc2)nc2sc3cc(Cl)ccc3n2c1=N", "GROUP LABEL": "class 0"}
{"COMPOUND": "CNC(=O)c1cc(Oc2ccc3nc(NC(=O)Nc4cc(C(F)(F)F)cc(C(F)(F)F)c4)sc3c2)ccn1", "GROUP LABEL": "class 1"}
{"COMPOUND": "NC(N)=N/N=C/c1ccc(Br)cc1", "GROUP LABEL": "class 1"}
